system_tested: Carbonic anhydrase 2 (Homo sapiens, UniProt P00918)
endpoint: pKi
One number for each entry, as −log10 of the molar value.

# count of solved cases: 2
# compound_smiles, pKi
data = [
    ("CC(=O)OC[C@H]1O[C@@H](S(=O)(=O)NCc2ccc(S(N)(=O)=O)cc2)[C@H](OC(C)=O)[C@@H](OC(C)=O)[C@@H]1O[C@H]1O[C@H](COC(C)=O)[C@@H](OC(C)=O)[C@H](OC(C)=O)[C@H]1OC(C)=O", 7.20),
    ("CC(=O)OC[C@H]1O[C@@H](SNCCc2ccc(S(N)(=O)=O)cc2)[C@H](OC(C)=O)[C@@H](OC(C)=O)[C@@H]1OC(C)=O", 7.84),
]

Challenge: Could you tell me which pKi is on file for NS(=O)(=O)c1ccc(CNS(=O)(=O)[C@@H]2O[C@H](CO)[C@@H](O)[C@H](O)[C@H]2O)cc1 ?
Response given: 8.04
